Measured composite z-score by item
Target: Concanavalin-A (Canavalia ensiformis)
Assay: ConA small-molecule binders, primary screen, artefact control for SMM control protein annotation, biochemical, small-molecule microarray, Alexa647 label, 635 nm (AID 1127);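 further: z combines 667 nm emission intensity with signal-to-noise across three replicate slides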
Details: ConA-A647 binding fluorescence, higher = more signal
The answer should be written as a number, with no unit following it.

Take a look at these entries with their results.
CC(=O)NCCCC[C@@H]1NC(=O)[C@@H]2C[C@H](C(=O)NCc3ccc(F)cc3)[C@H](c3cccc(OCCO)c3)N2C1=O :: 0.474
C=CC[C@@]12N=C(c3ccc(OCCCO)cc3)O[C@@H]1c1ccccc1CN(Cc1ccccc1)C2=O :: 1.02

Consider the compound shown here: COC(=O)C1=CC(c2ccc(CO)cc2)=CC(c2cccs2)N(Cc2cccc(OC(F)(F)F)c2)C=C1C(=O)OC (centres undefined) What is its recorded composite z-score? 1.18

Consider the compound shown here: "Cc1ccc(S[C@]2(C(=O)NCCCN(C)C)CC(=O)N(C3CCCCC3)[C@@H]2c2ccc(CO)cc2I)cc1" What is its recorded composite z-score? -1.49
